Listing of entries alongside the reported pIC50.
- target.or.test.system: BRD4 BD2 (Homo sapiens, UniProt O60885)
- assay.comment: AlphaScreen binding assay, BRD4 Bromodomain 2
- Experimental: The binding of Example compounds to BRD4 Bromodomain 1 and BRD4 Bromodomain 2 was assessed using 384-well AlphaScreen assay technology. His-epitope tagged BRD4 BD144-168 and BRD4 BD2333-460 were cloned, expressed, and purified to homogeneity. BRD4 BD1 and BRD4 BD2 binding and inhibition was assessed by monitoring the engagement of biotinylated Histone H4 (1-21) K5/8/12/16 tetra-acetylated peptide with the targets using the AlphaScreen technology (PerkinElmer). […]
pIC50: −log10 of the molar value.
measurement.name: pIC50

>>> print(df.to_string())
                             chemical_smiles        result
 0  CC(=O)N1c2ccccc2N(S(=O)(=O)c2cccnc2)C[C@@H]1C        < 6.30
 1  CC(=O)N1c2ccc(-c3ccc(S(=O)(=O)CC4CC4)cc3)cc2N(C(=O)OC(C)C)C[C@@H]1C  6.30 to 7.30
 2  CC(=O)N1c2ccccc2N(Cc2ccc(O)cc2)C[C@@H]1C        < 6.30
 3  CCN(CC)S(=O)(=O)c1cc(-c2ccc3c(c2)N(C(=O)OC2CCOCC2)C[C@H](C)N3C(C)=O)ccc1OC  6.30 to 7.30
 4  CC(C)OC(=O)N1C[C@H](C)N(C(=O)C2CC2)c2ccc(-c3ccc(C(=O)N4CCNCC4)cc3)cc21  6.30 to 7.30
 5  CC(=O)N1c2ccc(-c3cnc(N)cn3)cc2N(C(=O)OC(C)C)C[C@@H]1C  6.30 to 7.30
 6  CC(=O)N1c2ccc(-c3cnc(N)cn3)cc2N(C(=O)c2ccco2)C[C@@H]1C        > 7.30
 7  CCS(=O)(=O)c1ccc(-c2ccc3c(c2)N(C(=O)C2CC2)C[C@H](C)N3C(C)=O)cc1  6.30 to 7.30
 8  CC(=O)N1c2ccc(-c3cnn(CCF)c3)cc2N(C(=O)OC(C)C)C[C@@H]1C  6.30 to 7.30
 9  CC(=O)N1c2ccc(-c3ccc(S(=O)(=O)NCCO)cc3)cc2N(C(=O)OC(C)C)C[C@@H]1C  6.30 to 7.30
10  COC(=O)N1c2ccc(-c3ccc(N(C)S(C)(=O)=O)cc3)cc2N(C(=O)Oc2cccnc2)C[C@@H]1C        < 6.30
11  CCOC(=O)N1C[C@H](C)N(C(C)=O)c2ccc(-c3ccc(S(=O)(=O)NC(C)(C)C)cc3)cc21  6.30 to 7.30
12  COC(=O)N1c2ccc(-c3cnn(C4CCNCC4)c3)cc2N(C(=O)Oc2ccc(F)cc2)C[C@@H]1C  6.30 to 7.30
13  CC(=O)N1c2ccc(-c3ccc(NS(C)(=O)=O)cc3)cc2N(C(=O)OC(C)C)C[C@@H]1C  6.30 to 7.30
14  CCOC(=O)N1C[C@H](C)N(C(C)=O)c2ccc(-c3cccc(NS(=O)(=O)N(C)C)c3)cc21  6.30 to 7.30

---

- target.or.test.system: BRD4 BD2 (Homo sapiens)
- assay.comment: AlphaScreen binding assay, BRD4 Bromodomain 2
pIC50: −log10 of the molar value.
measurement.name: pIC50

>>> print(df.to_string())
                             chemical_smiles    target_or_test_system        result
 0  CC(=O)N1c2ccc(-c3ccc(S(C)(=O)=O)cc3)cc2N(C(=O)c2ccc(CN)o2)C[C@@H]1C  BRD4 BD2 (Homo sapiens)  6.30 to 7.30
 1  CC(=O)N1c2ccccc2N(C(=O)c2ccc(C(C)C)cn2)C[C@@H]1C  BRD4 BD2 (Homo sapiens)        < 6.30
 2  CC(=O)N1c2ccc(-c3cc(C(F)(F)F)nn3C)cc2N(C(=O)c2ccco2)C[C@@H]1C  BRD4 BD2 (Homo sapiens)        < 6.30
 3  CC(C)OC(=O)N1C[C@H](C)N(C(=O)C2CC2)c2ccc(-c3cnn(CC(=O)N4CCCCC4)c3)cc21  BRD4 BD2 (Homo sapiens)  6.30 to 7.30
 4  CC(=O)N1c2ccc(-c3cccc(-c4noc(C)n4)c3)cc2N(C(=O)c2ccco2)C[C@@H]1C  BRD4 BD2 (Homo sapiens)        > 7.30
 5  COC(=O)N1c2ccc(-c3ccc(C(=O)N4CCNCC4)cc3)cc2N(C(=O)C2CC2)C[C@@H]1C  BRD4 BD2 (Homo sapiens)  6.30 to 7.30
 6  CC(=O)N1c2cnc(-c3ccc(S(C)(=O)=O)cc3)cc2N(C(=O)c2ccco2)C[C@@H]1C  BRD4 BD2 (Homo sapiens)  6.30 to 7.30
 7  CC(=O)N1c2ccc(-c3ccc(OCCS(C)(=O)=O)cc3)cc2N(C(=O)OC2CCCCC2)C[C@@H]1C  BRD4 BD2 (Homo sapiens)  6.30 to 7.30
 8  CC(=O)N1c2ccc(-c3ccc4cn(C)nc4c3)cc2N(C(=O)c2ccco2)C[C@@H]1C  BRD4 BD2 (Homo sapiens)  6.30 to 7.30
 9  CNC(=O)CN(C)C(=O)c1ccc(-c2ccc3c(c2)N(C(=O)OC(C)C)C[C@H](C)N3C(=O)C2CC2)cc1  BRD4 BD2 (Homo sapiens)  6.30 to 7.30
10  CC(C)OC(=O)N1C[C@H](C)N(C(=O)C2CC2)c2ccc(-c3ccc(C4(O)COC4)cc3)cc21  BRD4 BD2 (Homo sapiens)  6.30 to 7.30
11  CC(=O)N1c2ccc(-c3ccc(N4CCCS4(=O)=O)cc3)cc2N(C(=O)OC2CCC(F)(F)CC2)C[C@@H]1C  BRD4 BD2 (Homo sapiens)  6.30 to 7.30
12  COC(=O)N1c2ccc(-c3ccc(S(=O)(=O)CCN)cc3)cc2N(C(=O)OC(C)C)C[C@@H]1C  BRD4 BD2 (Homo sapiens)  6.30 to 7.30
13  CC(=O)N1c2ccc(-c3ccc(S(C)(=O)=O)cc3)cc2N(C(=O)C2CC2)C[C@@H]1C  BRD4 BD2 (Homo sapiens)  6.30 to 7.30
14  CC(=O)N1c2ccc(-c3cccc(N(C)C)c3)cc2N(C(=O)c2ccco2)C[C@@H]1C  BRD4 BD2 (Homo sapiens)  6.30 to 7.30

---

- target.or.test.system: BRD4 BD2 (Homo sapiens, UniProt O60885)
- assay.comment: AlphaScreen binding assay, BRD4 Bromodomain 2
measurement.name: IC50

>>> print(df.to_string())
                                   compound  measurement_name        result
0  CC(=O)N1c2ccc(-c3ccc(S(C)(=O)=O)cc3)cc2N(C(=O)Nc2ccc(Cl)cc2)C[C@@H]1C              IC50      > 500 nM
1  COC(=O)N1c2ccc(-c3ccc(C(=O)N4CC[C@H](O)C4)cc3)cc2N(C(=O)OC(C)C)C[C@@H]1C              IC50  50 to 500 nM
2  CC(=O)N1c2ccc(-c3cnn(CC4(C)COC4)c3)cc2N(C(=O)OC(C)C)C[C@@H]1C              IC50  50 to 500 nM
3  CC(=O)N1c2ccc(-c3ccc(S(C)(=O)=O)cc3)cc2N(C(=O)c2cc3cccnc3[nH]2)CC1C (stereo not shown)              IC50       < 50 nM
4  CC(=O)N1c2ccccc2N(C(=O)CCc2ccccc2)C[C@@H]1C              IC50      > 500 nM
5  CC(=O)N1c2ccc(-c3ccc(S(=O)(=O)C(C)C)cc3)cc2N(C(=O)C2CCC2)C[C@@H]1C              IC50  50 to 500 nM
6  CC(=O)N1c2ccc(-c3ccc(F)c(S(C)(=O)=O)c3)cc2N(C(=O)OC2CCOCC2)C[C@@H]1C              IC50      > 500 nM

---

- target.or.test.system: BRD4 BD2 (Homo sapiens)
- assay.comment: AlphaScreen binding assay, BRD4 Bromodomain 2
pIC50: −log10 of the molar value.
Listing of entries alongside the reported pIC50.
measurement.name: pIC50

>>> df
                                    molecule  measurement_name        result
 0  CC(=O)N1c2ccc(C(=O)N3CCCC3)cc2N(C(=O)c2ccco2)C[C@@H]1C [Example I-101]             pIC50        < 6.30
 1  CC(C)OC(=O)N1C[C@H](C)N(C(=O)C2CC2)c2ccc(-c3ccc(C(=O)N4CC(O)C4)cc3)cc21 [Example I-578]             pIC50  6.30 to 7.30
 2  CC(=O)N1c2ccc(-c3cnn(C4CC4)c3)cc2N(C(=O)C2CC2)C[C@@H]1C [Example I-8]             pIC50        > 7.30
 3  CC(=O)N1c2ccc(-c3cnn(CC(C)(C)O)c3)cc2N(C(=O)OC(C)C)C[C@@H]1C [Example I-327]             pIC50  6.30 to 7.30
 4  CC(=O)N1c2ccccc2N(C(=O)c2cc3ccccc3s2)C[C@@H]1C [Example I-746]             pIC50        < 6.30
 5  CC(=O)N1c2ccccc2N(Cc2cncn2C)C[C@@H]1C [Example I-926]             pIC50        < 6.30
 6  CC(=O)N1c2ccc(-c3cnn(CCC#N)c3)cc2N(C(=O)C2CC2)C[C@@H]1C [Example I-650]             pIC50  6.30 to 7.30
 7  CC(=O)N1c2ccc(-c3cnn(CCO)c3)cc2N(C(=O)C2CC2)C[C@@H]1C [Example I-342]             pIC50  6.30 to 7.30
 8  CC(=O)N1c2ccc(-c3nccn3C)cc2N(C(=O)c2ccco2)C[C@@H]1C [Example I-388]             pIC50        < 6.30
 9  COC(=O)N1c2ccc(-c3cnn(C[C@@H]4CCNC4)c3)cc2N(C(=O)OC(C)C)C[C@@H]1C [Example I-691]             pIC50  6.30 to 7.30
10  CC(=O)N1c2ccc(-c3ccccc3)cc2N(C(=O)c2ccco2)C[C@@H]1C [Example I-804]             pIC50        > 7.30
11  CC(=O)N1c2ccc(-c3cc(Cl)cc(S(C)(=O)=O)c3)cc2N(C(=O)OC2CCCCC2)C[C@@H]1C [Example I-1247]             pIC50        < 6.30
12  CC(=O)N1c2ccccc2N(S(=O)(=O)c2ccccc2)C[C@@H]1C [Example I-932]             pIC50        < 6.30
13  CC(=O)N1c2ccc(-c3cnn(C[C@@H]4CCNC4)c3)cc2N(C(=O)OC(C)C)C[C@@H]1C [Example I-687]             pIC50        > 7.30
14  COC(=O)N1c2ccc(-c3ccc(S(=O)(=O)CCO)cc3)cc2N(C(=O)C2CC2)C[C@@H]1C [Example I-462]             pIC50  6.30 to 7.30
15  CC(=O)N1c2ccc(-c3ccc(C(=O)N4CCCC[C@@H]4CN)cc3)cc2N(C(=O)OC(C)C)C[C@@H]1C [Example I-591]             pIC50  6.30 to 7.30
